- Subject of test: T1, ScPif1p (237-780) (Saccharomyces cerevisiae, UniProt P07271 237-780)
- T1 sequence: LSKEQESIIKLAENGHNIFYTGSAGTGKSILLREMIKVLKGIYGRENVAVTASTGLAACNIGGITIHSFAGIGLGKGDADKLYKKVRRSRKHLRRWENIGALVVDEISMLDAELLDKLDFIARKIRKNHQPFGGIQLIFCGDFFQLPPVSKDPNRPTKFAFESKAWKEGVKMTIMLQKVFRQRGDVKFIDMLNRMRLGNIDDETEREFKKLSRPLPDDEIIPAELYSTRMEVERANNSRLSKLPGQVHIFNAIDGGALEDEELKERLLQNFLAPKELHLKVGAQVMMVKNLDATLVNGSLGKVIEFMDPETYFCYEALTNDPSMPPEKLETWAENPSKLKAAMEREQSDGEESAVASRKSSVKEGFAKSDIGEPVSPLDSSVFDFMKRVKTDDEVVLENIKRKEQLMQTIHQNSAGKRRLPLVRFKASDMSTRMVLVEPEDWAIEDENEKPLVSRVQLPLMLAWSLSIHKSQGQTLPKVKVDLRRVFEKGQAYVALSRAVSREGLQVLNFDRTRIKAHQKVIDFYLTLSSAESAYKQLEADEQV
- Assay explanation: fluorescence anisotropy
Measurement label: Kd (nM)
Number in nM, nothing else.

IN: I have this binder here, GTGTGTGTGGTG (ssDNA) [GR12] , and I need its recorded Kd.
OUT: 6.1
